Target: PKC-ε (Homo sapiens)
Assay: Activation of purified PKC isozymes, radiometric: PKC-ε
Conditions: lowest concentration that activates by 50% of maximum activation
measured_parameter: EC50 (nM)
Express it in nM; write the number only.

Exercise: Please list EC50 recorded for the compound CCCCCC1CC1CC1CC1CCCCCCCC(=O)OC/C=C(C)/C=C/C=C(C)/C=C/C1=C(C)CCCC1(C)C (stereo not shown)
Key: 10

* * *

Test system: phosphatidylserine (C2) binding site
Assay: 3H-DCPLA-ME binding to rat brain slices with competitors, film autoradiography
Conditions: 30 nM competitor
measured_parameter: 3H-DCPLA-ME binding, 30 nM competitor
The reply should read as a number followed by its unit.

The cases that follow already have their 3H-DCPLA-ME binding, 30 nM competitor on record.
compound	assayed_target	measured_parameter	measured_value
CCCCCC1CC1CC1CC1CCCCCCCC(=O)O (stereo not shown)	phosphatidylserine (C2) binding site	3H-DCPLA-ME binding, 30 nM competitor	86%
CCC/C=C/C=C/C(=O)O[C@H]1/C(=C/C(=O)OC)C[C@H]2C[C@H]([C@@H](C)O)OC(=O)C[C@H](O)C[C@@H]3C[C@H](OC(C)=O)C(C)(C)C(O)(C[C@@H]4C/C(=C/C(=O)OC)C[C@H](/C=C/C(C)(C)[C@]1(O)O2)O4)O3	phosphatidylserine (C2) binding site	3H-DCPLA-ME binding, 30 nM competitor	100%
CCCC(=O)O[C@@H]1[C@@H](C)[C@@]2(O)[C@@H](C=C(CO)C[C@]3(O)C(=O)C(C)=C[C@@H]23)[C@@H]2C(C)(C)[C@]12OC(=O)CCC	phosphatidylserine (C2) binding site	3H-DCPLA-ME binding, 30 nM competitor	100%

Exercise: Recall the reported 3H-DCPLA-ME binding, 30 nM competitor of CCCCCC1CC1CC1CC1CCCCCCCC(=O)OC (stereo not shown) when tested on phosphatidylserine (C2) binding site.
Key: 64%

* * *

Below, each entry is listed alongside its reported Specificity ε/α.
Biological target: PKC-ε (Homo sapiens, UniProt Q02156)
Sequence (Q02156 1-737): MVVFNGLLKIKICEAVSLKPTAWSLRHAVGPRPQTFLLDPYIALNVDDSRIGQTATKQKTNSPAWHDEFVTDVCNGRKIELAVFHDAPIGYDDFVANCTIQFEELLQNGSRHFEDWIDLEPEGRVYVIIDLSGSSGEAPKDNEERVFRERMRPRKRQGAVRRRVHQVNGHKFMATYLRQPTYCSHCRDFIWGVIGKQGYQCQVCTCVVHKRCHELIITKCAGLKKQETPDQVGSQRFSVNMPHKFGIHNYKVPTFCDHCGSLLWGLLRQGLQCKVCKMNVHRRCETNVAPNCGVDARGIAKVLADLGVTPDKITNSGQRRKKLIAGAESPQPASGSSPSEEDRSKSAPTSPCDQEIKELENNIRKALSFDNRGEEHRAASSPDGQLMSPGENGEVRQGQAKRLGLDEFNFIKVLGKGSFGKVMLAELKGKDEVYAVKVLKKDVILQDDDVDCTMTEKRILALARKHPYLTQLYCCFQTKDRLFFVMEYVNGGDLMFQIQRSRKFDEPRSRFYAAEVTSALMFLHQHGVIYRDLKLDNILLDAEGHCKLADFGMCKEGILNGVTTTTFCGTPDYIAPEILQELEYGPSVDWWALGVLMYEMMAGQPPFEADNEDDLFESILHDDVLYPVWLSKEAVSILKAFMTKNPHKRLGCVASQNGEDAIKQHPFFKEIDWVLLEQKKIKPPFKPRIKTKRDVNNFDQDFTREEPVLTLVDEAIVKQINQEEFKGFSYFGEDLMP
Assay: Activation of purified PKC isozymes, radiometric: PKC-ε
Format: biochemical
Settings: Activation of PKC-ε ÷ activation or inhibition of PKCα at 3 × EC50
Write no unit; give the number alone.

The cases that follow already have their Specificity ε/α on record.
compound	Specificity ε/α
CCCCCC1CC1CC1CC1CCCCCCCC(=O)OC1CC[C@@]2(C)C(=CC[C@H]3[C@H]4CC[C@H]([C@H](C)CCCC(C)C)[C@@]4(C)CC[C@H]32)C1 (stereo partly drawn) [DCPLA-cholesteryl ester]	0.94
CCCCCC1CC1CC1CC1CCCCCCCC(=O)OC (stereo not drawn) [DCPLA-ME]	12.1
CCCCCCCCC1CC1CCCCCCCCOC(=O)CCCCCCCC1CC1CC1CC1CCCCC (stereo not drawn) [DCPLA-cyclopropanated oleyl ester]	8.1
CCCCCC1CC1CC1CC1CCCCCCCC(=O)OC(C)C (stereo not drawn) [DCPLA-isopropyl ester]	1.4
CCCCCC1CC1CC1CC1CCCCCCCC(=O)OCC (stereo not drawn) [DCPLA-ethyl ester]	4.2

# ---- query compound ----
Exercise: Please list Specificity ε/α recorded for the compound CCCCCC1CC1CC1CC1CCCCCCCC(=O)O (stereo not drawn) [DCPLA, cyclopropanated linoleic acid]
Key: 7.4
